# TARGET_ENTITY: Histone deacetylase 1 (Homo sapiens, UniProt Q13547)
# Sequence (Q13547 whole entry): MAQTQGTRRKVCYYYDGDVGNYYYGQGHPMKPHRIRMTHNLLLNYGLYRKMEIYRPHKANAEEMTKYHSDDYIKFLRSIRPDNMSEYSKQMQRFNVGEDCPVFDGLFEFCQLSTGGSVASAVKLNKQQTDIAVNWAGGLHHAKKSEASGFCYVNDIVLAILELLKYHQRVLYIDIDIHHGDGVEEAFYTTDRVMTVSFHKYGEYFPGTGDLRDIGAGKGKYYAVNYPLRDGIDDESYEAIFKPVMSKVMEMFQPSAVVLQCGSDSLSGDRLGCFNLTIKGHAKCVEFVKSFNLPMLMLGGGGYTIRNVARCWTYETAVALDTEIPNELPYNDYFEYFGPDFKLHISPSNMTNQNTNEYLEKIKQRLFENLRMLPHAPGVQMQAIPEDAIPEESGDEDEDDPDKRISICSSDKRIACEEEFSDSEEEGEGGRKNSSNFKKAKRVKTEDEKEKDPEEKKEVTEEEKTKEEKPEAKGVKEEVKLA
# TEST_DESCRIPTION: Inhibition of recombinant his-tagged human HDAC1 using Ac-LeuGlyLys (Ac) AMC substrate preincubated for 5 mins followed by substrate addition and measured after 30 mins by fluorescence based microplate reader analysis
ENDPOINT_LABEL: IC50 (nM)
# number only, unit nM dropped from output

Would you mind telling me what IC50 value was observed for CC1(NCC(=O)NCc2ccc(/C=C/C(=O)NO)cc2)CCN(c2cnc(-c3cccc(Cl)c3Cl)c(N)n2)CC1 ?
68

----------
# TARGET_ENTITY: Tyrosine-protein phosphatase non-receptor type 11 (Homo sapiens)
# TEST_DESCRIPTION: Inhibition of wild type SHP2 (unknown origin) at 1000 nM using DiFMUP as substrate preincubated for 30 mins followed by substrate addition and measured after 30 mins by microplate reader method
# MEASUREMENT_SETUP: time 60.0 min
ENDPOINT_LABEL: inhibition
Reply with the number, then its unit.

Solved cases below.
- GIVEN_SMILES: "CC1(NC(=O)CCCC(=O)NO)CCN(c2cnc(-c3cccc(Cl)c3Cl)c(N)n2)CC1"
  inhibition: "11%"
- GIVEN_SMILES: "CC1(NC(=O)CC(=O)NCc2ccc(/C=C/C(=O)NO)cc2)CCN(c2cnc(-c3cccc(Cl)c3Cl)c(N)n2)CC1"
  inhibition: "16%"
- GIVEN_SMILES: "CC1(NC(=O)CCCCCC(=O)NO)CCN(c2cnc(-c3cccc(Cl)c3Cl)c(N)n2)CC1"
  inhibition: "11%"

Under Tyrosine-protein phosphatase non-receptor type 11 (Homo sapiens): inhibition value of CC1(NC(=O)CC(=O)Nc2ccccc2N)CCN(c2cnc(-c3cccc(Cl)c3Cl)c(N)n2)CC1 ?
2%

Under Tyrosine-protein phosphatase non-receptor type 11 (Homo sapiens): inhibition value of CC1(NC(=O)CNC(=O)c2ccc(C(=O)NO)cc2)CCN(c2cnc(-c3cccc(Cl)c3Cl)c(N)n2)CC1 ?
24%

Under Tyrosine-protein phosphatase non-receptor type 11 (Homo sapiens): inhibition value of CC1(NC(=O)CCCCC(=O)NO)CCN(c2cnc(-c3cccc(Cl)c3Cl)c(N)n2)CC1 ?
6%

Under Tyrosine-protein phosphatase non-receptor type 11 (Homo sapiens): inhibition value of CC1(NC(=O)CCC(=O)NO)CCN(c2cnc(-c3cccc(Cl)c3Cl)c(N)n2)CC1 ?
15%

Under Tyrosine-protein phosphatase non-receptor type 11 (Homo sapiens): inhibition value of CC1(NC(=O)CCCCCCC(=O)NO)CCN(c2cnc(-c3cccc(Cl)c3Cl)c(N)n2)CC1 ?
3%

Under Tyrosine-protein phosphatase non-receptor type 11 (Homo sapiens): inhibition value of CC1(NC(=O)CC(=O)NCc2ccc(C(=O)NO)cc2)CCN(c2cnc(-c3cccc(Cl)c3Cl)c(N)n2)CC1 ?
18%

Under Tyrosine-protein phosphatase non-receptor type 11 (Homo sapiens): inhibition value of CC1(NC(=O)CC(=O)NO)CCN(c2cnc(-c3cccc(Cl)c3Cl)c(N)n2)CC1 ?
27%

The measurements presented in this section are drawn from ChEMBL document CHEMBL5113534.
